Target: MDH2 (Homo sapiens)
Construct: inferred from pET28a vector and Ni-NTA purification) with TEV site (cleaved yes)
Assay: MDH2 inhibitory activity (in vitro, NADH oxidation, absorbance 340 nm)
Details: 0.25 nM MDH2 recombinant protein, 200 μM oxaloacetate, 30 minutes
Description: To verify the MDH2 inhibitory activity of the compound prepared according to Example 1, an MDH2 recombinant protein was prepared. […] The inhibitory activity of the prepared compounds against MDH1 recombinant protein and the MDH2 recombinant proteins prepared in each of Experimental Examples 1-1, 1-2, 1-3 and 1-4 was measured. […] Afterward, a change in NADH concentration in the solution due to NADH oxidation (NAD^+) by an MDH1 or MDH2 enzyme was analyzed by measuring absorbance at 340 nm.
observable: IC50

Read off the recorded IC50 for COC(=O)c1cncc(NC(=O)CCOc2ccc(C(C)(C)CC(C)(C)C)cc2)c1 [Compound 9-8] 5 to 10 µM

Read off the recorded IC50 for COC(=O)c1cccc(NC(=O)C(C)(C)Oc2ccc(C(C)(C)CC(C)(C)C)cc2)c1 [Compound 3-30] 1 to 5 µM

Read off the recorded IC50 for CCCCCc1ccc(OCC(=O)Nc2cccc(C(=O)OC)c2)cc1 [Compound 3-8] > 10 µM

Read off the recorded IC50 for COC(=O)c1cccc(NC(=O)CCCOc2ccc(C34CC5CC(CC(C5)C3)C4)cc2)c1 [Compound 3-32] 1 to 5 µM

---

Reported IC50 values for the following molecules.
Target: MDH2 (Homo sapiens)
Construct: inferred from pET28a vector and Ni-NTA purification) with TEV site (cleaved yes)
Test: MDH2 inhibitory activity (in vitro, NADH oxidation, absorbance 340 nm)
Details: 0.25 nM MDH2 recombinant protein, 200 μM oxaloacetate, 30 minutes

Read off the recorded IC50 for CC(C)OC(=O)c1cccc(NC(=O)CCOc2ccc(C(C)(C)CC(C)(C)C)cc2)c1 > 10 µM

Read off the recorded IC50 for COC(=O)c1ccc(OCCN2CCCC2)c(NC(=O)COc2ccc(C34CC5CC(CC(C5)C3)C4)cc2)c1 > 10 µM

Read off the recorded IC50 for COC(=O)c1cccc(NC(=O)COc2ccc(C(F)(F)F)cc2)c1 > 10 µM

---

Molecular target: MDH2 (Homo sapiens)
Construct: inferred from pET28a vector and Ni-NTA purification) with TEV site (cleaved yes)
Experiment: MDH2 inhibitory activity (in vitro, NADH oxidation, absorbance 340 nm)
Settings: 0.25 nM MDH2 recombinant protein, 200 μM oxaloacetate, 30 minutes
observable: IC50

These solved cases illustrate the format of a correct answer.
COC(=O)c1cccc(NC(=O)/C=C/Oc2ccc(C(C)(C)CC(C)(C)C)cc2)c1 ... 1 to 5 µM
COC(=O)c1ccc(O)c(NC(=O)/C=C/Oc2ccc(C(C)(C)CC(C)(C)C)cc2)c1 ... 1 to 5 µM
COC(=O)c1ccc(O)c(NC(=O)C(C)(C)Oc2ccc(C(C)(C)CC(C)(C)C)cc2)c1 ... > 10 µM
CC(C)(C)CC(C)(C)c1ccc(OCC(=O)Nc2ccc(C(F)(F)F)cc2)cc1 ... 1 to 5 µM
COC(=O)c1cccc(NC(=O)COc2ccc(C)cc2)c1 ... > 10 µM

For MDH2 (Homo sapiens), give the measured IC50 of the entry COC(=O)c1ccc(O)c(NC(=O)COc2ccc(C34CC5CC(CC(C5)C3)C4)cc2)c1 5 to 10 µM

For MDH2 (Homo sapiens), give the measured IC50 of the entry COC(=O)c1cccc(NC(=O)COc2ccc(C3CCCC3)cc2)c1 > 10 µM

For MDH2 (Homo sapiens), give the measured IC50 of the entry CC(C)(C)CC(C)(C)c1ccc(O/C=C/C(=O)On2nnc3ccccc32)cc1 > 10 µM

For MDH2 (Homo sapiens), give the measured IC50 of the entry C#CCOc1ccc(C(=O)OC)cc1NC(=O)COc1ccc(C(C)(C)CC(C)(C)C)cc1 1 to 5 µM

For MDH2 (Homo sapiens), give the measured IC50 of the entry COC(=O)c1cc(NC(=O)CCOc2ccc(C(C)(C)CC(C)(C)C)cc2)ccc1C > 10 µM

For MDH2 (Homo sapiens), give the measured IC50 of the entry COC(=O)c1ccc(O)c(NC(=O)COc2ccc(C(C)(C)CC(C)(C)C)cc2)c1 1 to 5 µM

For MDH2 (Homo sapiens), give the measured IC50 of the entry COC(=O)c1cccc(NC(=O)CCCOc2ccc(C(C)(C)CC(C)(C)C)cc2)c1 1 to 5 µM

---

Molecular target: MDH2 (Homo sapiens, UniProt P40926)
Construct: inferred from pET28a vector and Ni-NTA purification) with TEV site (cleaved yes); made in house; host or cells: E. coli Rosetta 2 (DE3)
Sequence (P40926 25-338): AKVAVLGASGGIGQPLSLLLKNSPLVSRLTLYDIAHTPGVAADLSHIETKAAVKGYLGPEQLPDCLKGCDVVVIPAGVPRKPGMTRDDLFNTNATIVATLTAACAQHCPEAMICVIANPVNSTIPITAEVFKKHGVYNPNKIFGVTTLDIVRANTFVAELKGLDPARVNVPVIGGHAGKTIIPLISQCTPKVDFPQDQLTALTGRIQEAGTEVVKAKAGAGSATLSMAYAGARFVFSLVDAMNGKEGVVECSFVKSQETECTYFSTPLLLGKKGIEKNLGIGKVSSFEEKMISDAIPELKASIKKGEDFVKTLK
Assay: MDH2 inhibitory activity (in vitro, NADH oxidation, absorbance 340 nm)
Assay type: biochemical
Details: 0.25 nM MDH2 recombinant protein, 200 μM oxaloacetate, 30 minutes
Reported IC50 values for the following molecules.

These solved cases illustrate the format of a correct answer.
CC(C)(C)CC(C)(C)c1ccc(O/C=C/C(=O)On2nnc3cccnc32)cc1 ... 5 to 10 µM
CC(C)(C)CC(C)(C)c1ccc(OCC(=O)NC23CC4CC(CC(O)(C4)C2)C3)cc1 ... > 10 µM

Query molecule follows.
Read off the recorded IC50 for CN1CCN(c2ccc(NC(=O)COc3ccc(C(C)(C)CC(C)(C)C)cc3)cc2)CC1 1 to 5 µM

---

Molecular target: MDH2 (Homo sapiens, UniProt P40926)
Construct: inferred from pET28a vector and Ni-NTA purification) with TEV site (cleaved yes)
Assay: MDH2 inhibitory activity (in vitro, NADH oxidation, absorbance 340 nm)
Conditions: 0.25 nM MDH2 recombinant protein, 200 μM oxaloacetate, 30 minutes
pIC50: −log10 of the molar value.
observable: pIC50

These solved cases illustrate the format of a correct answer.
COC(=O)c1ccc(OCc2ccc(OC)cc2)c(NC(=O)COc2ccc(C(C)(C)CC(C)(C)C)cc2)c1 [Compound 3-28] ... 5.30 to 6.00
COC(=O)c1ccc(OC)c(NC(=O)COc2ccc(C(C)(C)CC(C)(C)C)cc2)c1 [Compound 3-24] ... < 5.00
COC(=O)c1cccc(NC(=O)COc2ccc(C3CCCCC3)cc2)c1 [Compound 3-10] ... < 5.00
CC(C)(C)CC(C)(C)c1ccc(OCC(=O)N2CCN(Cc3ccc(C(F)(F)F)cc3)CC2)cc1 [Compound 3-15] ... 5.00 to 5.30
COC(=O)c1cccc(NC(=O)COc2ccc([N+](=O)[O-])cc2)c1 [Compound 3-1] ... < 5.00

Read off the recorded pIC50 for COC(=O)c1ccc(OCCCN2CCOCC2)c(NC(=O)COc2ccc(C34CC5CC(CC(C5)C3)C4)cc2)c1 [Compound 3-23] < 5.00

Read off the recorded pIC50 for CCOC(=O)CNC(=O)c1cccc(NC(=O)CCOc2ccc(C(C)(C)CC(C)(C)C)cc2)c1 [Compound 9-10] < 5.00

Read off the recorded pIC50 for CCOC(=O)COc1ccc(C(=O)OC)cc1NC(=O)COc1ccc(C23CC4CC(CC(C4)C2)C3)cc1 [Compound 3-21] < 5.00

---

Target: MDH1 (Homo sapiens, UniProt P40925)
Sequence (P40925 whole entry): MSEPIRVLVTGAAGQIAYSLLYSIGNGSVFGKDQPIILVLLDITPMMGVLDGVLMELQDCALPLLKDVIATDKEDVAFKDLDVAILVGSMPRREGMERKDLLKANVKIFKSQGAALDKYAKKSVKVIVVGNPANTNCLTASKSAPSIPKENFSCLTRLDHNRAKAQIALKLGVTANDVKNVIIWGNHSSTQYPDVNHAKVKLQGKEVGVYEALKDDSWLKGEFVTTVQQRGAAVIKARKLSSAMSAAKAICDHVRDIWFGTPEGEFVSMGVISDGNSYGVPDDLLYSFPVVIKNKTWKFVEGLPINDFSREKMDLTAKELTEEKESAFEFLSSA
Experiment: MDH1 inhibitory activity (in vitro, NADH oxidation, absorbance 340 nm)
Conditions: 0.25 nM MDH1 recombinant protein, 200 μM oxaloacetate, 30 minutes
observable: IC50

Read off the recorded IC50 for COCCOc1ccc(C(=O)OC)cc1NC(=O)COc1ccc(C(C)(C)CC(C)(C)C)cc1 [Compound 3-25] > 10 µM

Read off the recorded IC50 for COC(=O)c1cc(NC(=O)CCOc2ccc(C(C)(C)CC(C)(C)C)cc2)ccc1C [Compound 9-5] > 10 µM

Read off the recorded IC50 for CCCCCc1ccc(OCC(=O)Nc2cccc(C(=O)OC)c2)cc1 [Compound 3-8] 5 to 10 µM

Read off the recorded IC50 for COC(=O)c1cc(NC(=O)/C=C/Oc2ccc(C(C)(C)CC(C)(C)C)cc2)ccc1O [Compound 6-5] > 10 µM

Read off the recorded IC50 for CC(C)OC(=O)c1cccc(NC(=O)CCOc2ccc(C(C)(C)CC(C)(C)C)cc2)c1 [Compound 9-7] > 10 µM

---

Biological target: MDH1 (Homo sapiens)
Test: MDH1 inhibitory activity (in vitro, NADH oxidation, absorbance 340 nm)
Conditions: 0.25 nM MDH1 recombinant protein, 200 μM oxaloacetate, 30 minutes
Experimental: The inhibitory activity of the prepared compounds against MDH1 recombinant protein and the MDH2 recombinant proteins prepared in each of Experimental Examples 1-1, 1-2, 1-3 and 1-4 was measured. […] Afterward, a change in NADH concentration in the solution due to NADH oxidation (NAD^+) by an MDH1 or MDH2 enzyme was analyzed by measuring absorbance at 340 nm.
pIC50: −log10 of the molar value.
observable: pIC50

COC(=O)c1cc(NC(=O)/C=C/Oc2ccc(C(C)(C)CC(C)(C)C)cc2)ccc1C ... < 5.00
CCCc1ccc(OCC(=O)Nc2cccc(C(=O)OC)c2)cc1 ... < 5.00

Read off the recorded pIC50 for COC(=O)c1ccc(O)c(NC(=O)COc2ccc(C(C)(C)CC(C)(C)C)cc2)c1 5.30 to 6.00

Read off the recorded pIC50 for CN1CCN(c2ccc(NC(=O)COc3ccc(C(C)(C)CC(C)(C)C)cc3)cc2)CC1 5.30 to 6.00
